Give measured relative viability for each item. Keep answers brief.
# System: NCI-H1355
# METHOD: relative viability (nuclei count vs DMSO), 5 days (fraction); higher = more cells survive
# CONDITION: first compound 0.4 µM
Could you respond with only the numeric value?

Looking up C[C@@H]1CN(CC(=O)Nc2ccc3c(c2)Cc2cccc(-c4cc(=O)cc(N5CCOCC5)o4)c2S3)C[C@H](C)O1 + Nc1nc2[nH]cc(CCc3ccc(C(=O)N[C@@H](CCC(=O)O)C(=O)O)cc3)c2c(=O)[nH]1 [Pemetrexed] (partner 0.2 µM) , I found its relative viability recorded as 0.959

For record C[C@@H]1CN(CC(=O)Nc2ccc3c(c2)Cc2cccc(-c4cc(=O)cc(N5CCOCC5)o4)c2S3)C[C@H](C)O1 + CC(=O)Nc1cccc(-n2c(=O)n(C3CC3)c(=O)c3c(Nc4ccc(I)cc4F)n(C)c(=O)c(C)c32)c1 [Trametinib] (partner 0.02 µM) the listed relative viability is 0.383

The value of relative viability measured for the compound C[C@@H]1CN(CC(=O)Nc2ccc3c(c2)Cc2cccc(-c4cc(=O)cc(N5CCOCC5)o4)c2S3)C[C@H](C)O1 + Cc1nc(Nc2ncc(C(=O)Nc3c(C)cccc3Cl)s2)cc(N2CCN(CCO)CC2)n1 [Dasatinib] (partner 0.075 µM) turned out to be 0.604

Summary for this compound, C[C@@H]1CN(CC(=O)Nc2ccc3c(c2)Cc2cccc(-c4cc(=O)cc(N5CCOCC5)o4)c2S3)C[C@H](C)O1 + CS(=O)(=O)CCNCc1ccc(-c2ccc3ncnc(Nc4ccc(OCc5cccc(F)c5)c(Cl)c4)c3c2)o1 [Lapatinib] (partner 2 µM) : relative viability is 0.816

---

# Test system: HCC-827
# METHOD: relative viability (nuclei count vs DMSO), 5 days (fraction); higher = more cells survive
# CONDITION: first compound 0.01 µM
Rule: relative viability below 0.7 gives criterion met, anything at or above gives criterion not met.

Regarding CC(C)Oc1cc(Nc2nc(N[C@@H](C)c3ccc(F)cn3)ncc2Cl)n[nH]1 [AZ23] + O=C(c1cc(Cc2n[nH]c(=O)c3ccccc23)ccc1F)N1CCN(C(=O)C2CC2)CC1 [Olaparib] (partner 8 µM) , kindly confirm whether its relative viability is beneath 0.7.
criterion met

Hello, is relative viability of the following molecule strictly smaller than 0.7? CC(C)Oc1cc(Nc2nc(N[C@@H](C)c3ccc(F)cn3)ncc2Cl)n[nH]1 [AZ23] + CC1(C)CCC(c2ccc(Cl)cc2)=C(CN2CCN(c3ccc(C(=O)NS(=O)(=O)c4ccc(N[C@H](CCN5CCOCC5)CSc5ccccc5)c(S(=O)(=O)C(F)(F)F)c4)cc3)CC2)C1 [Navitoclax] (partner 0.5 µM)
criterion not met

Here's an entry: CC(C)Oc1cc(Nc2nc(N[C@@H](C)c3ccc(F)cn3)ncc2Cl)n[nH]1 [AZ23] + CS(=O)(=O)CCNCc1ccc(-c2ccc3ncnc(Nc4ccc(OCc5cccc(F)c5)c(Cl)c4)c3c2)o1 [Lapatinib] (partner 2 µM) . Is its relative viability below 0.7?
criterion met

Answer whether the molecule CC(C)Oc1cc(Nc2nc(N[C@@H](C)c3ccc(F)cn3)ncc2Cl)n[nH]1 [AZ23] + COc1cccc2cc(-c3nc([C@H]4CC[C@H](C(=O)O)CC4)n4ncnc(N)c34)[nH]c12 [OSI-027] (partner 0.5 µM) has relative viability strictly less than 0.7
criterion not met

# check: relative viability < 0.7 for CC(C)Oc1cc(Nc2nc(N[C@@H](C)c3ccc(F)cn3)ncc2Cl)n[nH]1 [AZ23] + Nc1ncn([C@H]2C[C@H](O)[C@@H](CO)O2)c(=O)n1 [Decitabine] (partner 2 µM)
criterion met
